Numbers sourced from PubChem BioAssay (NCI).

# Tested on: HCC-2998 colon
# Test details: NCI-60 one-dose screen, 48 h (100 = growth as untreated, 0 = no growth, -100 = all killed)
# Test conditions: 10 µM
The panel holds about 83,000 compounds, 20% with a hit somewhere; the sample as a whole holds those more often.
Please go through the items and note down their growth.
Give bare numbers, in %.

In: Supply recorded growth for Cc1ccc2c3c(cccc13)-c1ccccc1C2=O here.
Out: 89

In: Supply recorded growth for FC(F)(F)c1ccc(-c2cnc(Br)nc2NC2CCCCCC2)cc1 here.
Out: 72.1

In: Supply recorded growth for Cc1ccc(C)c2c1sc1nc3n[nH]c(N)c3c(=N)n12 here.
Out: 109

In: Supply recorded growth for CCCCc1ccc(NC(=O)N(CCCl)N=O)cc1 here.
Out: 117

In: Supply recorded growth for CCCCn1c(=O)[nH]c2c(c1=O)C(c1ccc(Cl)cc1)c1c([nH]c(=O)n(CCCC)c1=O)N2 here.
Out: 103

I'm hoping you can list growth for every compound here, please.
1. Cc1ccc(C)c(S(=O)(=O)NC2c3ccccc3Oc3ccccc32)c1
2. COc1cc(C2C=C(c3ccc(Cl)c(Cl)c3)N=C3SC(C)=CN32)cc(OC)c1OC (stereo unspecified)
3. CCOc1cc(Br)c(C(C)NC(=O)c2cccc(OC)c2)cc1OCC (stereo unspecified)

Out:
104
90.7
37.7

I'm hoping you can list growth for every compound here, please.
1. CN1/C(=C\C(I)C(I)C2=[N+](C)c3ccccc3C2(C)C)C(C)(C)c2ccccc21 (stereo unspecified)
2. N=C(N)c1ccc(-c2ccc(-c3ccccc3)s2)cc1F
3. CC1(C)CCc2cc(-c3ccn(S(=O)(=O)c4ccc(Cl)cc4)n3)ccc2O1

Out:
12.6
-79.1
94.3
